RUN DESCRIPTION: Pharmacokinetic study of KW-3902, single intravenous dose, serum concentrations
Assay type: in vivo
PROTOCOL CONDITIONS: human, 1 mg, single intravenous dose 1 mg, Group 1, serum, read-out: Vss∞ Mean
EXPERIMENTAL ENDPOINT: Vd (L)

CCCn1c(=O)c2[nH]c(C34CC5CC(CC3C5)C4)nc2n(CCC)c1=O : 58.9

###

RUN DESCRIPTION: Pharmacokinetic study of KW-3902, single intravenous dose, serum concentrations
Format: in vivo
PROTOCOL CONDITIONS: human, 60 mg, single intravenous dose 60 mg, Group 4, serum, read-out: Vss∞ Mean
EXPERIMENTAL ENDPOINT: Vd (L)

CCCn1c(=O)c2[nH]c(C34CC5CC(CC3C5)C4)nc2n(CCC)c1=O [KW-3902, 8-(3-noradamantyl)-1,3-dipropylxanthine] : 176

###

RUN DESCRIPTION: Pharmacokinetic study of KW-3902, single intravenous dose, serum concentrations
Format: in vivo
PROTOCOL CONDITIONS: human, 20 mg, single intravenous dose 20 mg, Group 3, serum
EXPERIMENTAL ENDPOINT: MRT inf (h)

CCCn1c(=O)c2[nH]c(C34CC5CC(CC3C5)C4)nc2n(CCC)c1=O [KW-3902, 8-(3-noradamantyl)-1,3-dipropylxanthine] : 11.5

###

RUN DESCRIPTION: Pharmacokinetic study of KW-3902, single intravenous dose, serum concentrations
Type: in vivo
PROTOCOL CONDITIONS: human, 20 mg, single intravenous dose 20 mg, Group 3, serum, read-out: CL∞ Mean (converted)
Protocol: Individuals received a single intravenous dose of 1 mg, 2.5 mg. 5 mg, 10 mg, 20 mg, 30 mg 40 mg, 50 mg or 60 mg KW-3902 as indicated. The serum concentrations of KW-3902 and its M1-trans metabolite were measured using routine analytical methods. Routine mathematical formulae were used to determine pharmacokinetic values.
EXPERIMENTAL ENDPOINT: clearance (mL/min)

CCCn1c(=O)c2[nH]c(C34CC5CC(CC3C5)C4)nc2n(CCC)c1=O : 390

###

RUN DESCRIPTION: Pharmacokinetic study of KW-3902, single intravenous dose, serum concentrations
Type: in vivo
PROTOCOL CONDITIONS: human, 50 mg, single intravenous dose 50 mg, Group 4, serum
EXPERIMENTAL ENDPOINT: MRT inf

CCCn1c(=O)c2[nH]c(C34CC5CC(CC3C5)C4)nc2n(CCC)c1=O : 7.9 h

###

RUN DESCRIPTION: Pharmacokinetic study of KW-3902, single intravenous dose, serum concentrations
Assay type: in vivo
PROTOCOL CONDITIONS: human, 40 mg, single intravenous dose 40 mg, Group 4, serum
EXPERIMENTAL ENDPOINT: AUC(0-inf) (ng·h/mL)

CCCn1c(=O)c2[nH]c(C34CC5CC(CC3C5)C4)nc2n(CCC)c1=O [KW-3902, 8-(3-noradamantyl)-1,3-dipropylxanthine] : 1870

###

RUN DESCRIPTION: Pharmacokinetic study of KW-3902, single intravenous dose, serum concentrations
Format: in vivo
PROTOCOL CONDITIONS: human, 60 mg, single intravenous dose 60 mg, Group 4, serum
EXPERIMENTAL ENDPOINT: Cmax

CCCn1c(=O)c2[nH]c(C34CC5CC(CC3C5)C4)nc2n(CCC)c1=O : 682 ng/mL

Value source: patent US20070293518A1
